- target: human Cot catalytic domain (30-397 amino acids) (Homo sapiens, UniProt P41279)
- Construct: Purified recombinant human Cot catalytic domain (30-397 amino acids) was purchased from Cama Biosciences; purchased Cama Biosciences (so in the source)
- Sequence (P41279 30-397): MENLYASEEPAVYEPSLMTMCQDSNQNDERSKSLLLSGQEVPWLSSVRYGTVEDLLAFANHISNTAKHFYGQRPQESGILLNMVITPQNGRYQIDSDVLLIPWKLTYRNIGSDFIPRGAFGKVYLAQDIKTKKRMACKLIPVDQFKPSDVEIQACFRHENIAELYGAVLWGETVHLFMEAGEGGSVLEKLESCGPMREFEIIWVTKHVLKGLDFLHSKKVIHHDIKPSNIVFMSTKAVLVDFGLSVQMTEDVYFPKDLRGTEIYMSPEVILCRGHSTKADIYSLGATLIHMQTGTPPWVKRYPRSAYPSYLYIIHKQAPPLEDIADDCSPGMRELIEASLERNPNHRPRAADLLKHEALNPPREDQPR
- assayExplanation: High Throughput Cot Biochemical Assay (KinEASE TR-FRET)
- studyConditions: Cot KinEASE TR-FRET, 400 μM ATP; read-out: IC50 HTRF
Each record here notes measured IC50.
endpointLabel: IC50 (nM)

molecule="CC(C)(C)CNc1c(C#N)cnc2c(C#N)cc(N[C@H](c3cn(C4(C#N)CC4)nn3)c3ccccc3CO)cc12 [Example 1026]" endpointvalue=7
molecule="CC(C)(C)CNc1c(C#N)cnc2c(Cl)cc(N[C@@H](c3cccc(C4(C#N)CC4)c3)c3cn(C4(C(F)(F)F)CC4)nn3)cc12 [Example 1091]" endpointvalue=28
molecule="Cc1c(-c2cc[nH]n2)cccc1[C@H](Nc1cc(Cl)c2ncc(C#N)c(NCC(C)(C)C)c2c1)c1cn(C2(C(F)(F)F)CC2)nn1 [Example 1163]" endpointvalue=19
molecule="[2H][C@@](Nc1cc(C#N)c2ncc(C#N)c(NCC(C)(C)C)c2c1)(c1cn(C(C)(C)C)nn1)c1ccccc1Cl [Example 1029]" endpointvalue=14
molecule="CC(C)(C)CNc1c(C#N)cnc2c(C#N)cc(N[C@@H](c3ccc(F)cc3)c3cn(C4(c5ccncc5)CC4)nn3)cc12 [Example 983]" endpointvalue=11
molecule="N#Cc1cnc2c(Cl)cc(NC(c3cc(F)c(F)c(F)c3)c3cn(C4CCNCC4)nn3)cc2c1Nc1ccc(F)c(Cl)c1 (stereo not shown) [Example 875]" endpointvalue=66
molecule="Cc1c(-c2cnco2)cccc1[C@H](Nc1cc(Cl)c2ncc(C#N)c(NCC(C)(C)C)c2c1)c1cn(C2(C(F)(F)F)CC2)nn1 [Example 1165]" endpointvalue=9

----------
- target: human Cot catalytic domain (30-397 amino acids) (Homo sapiens, UniProt P41279)
- Construct: Purified recombinant human Cot catalytic domain (30-397 amino acids) was purchased from Cama Biosciences; purchased Cama Biosciences (so in the source)
- assayExplanation: High Throughput Cot Biochemical Assay (KinEASE TR-FRET)
- studyConditions: Cot biochemical HTRF (KinEASE TR-FRET) assay; read-out: IC50 HTRF
Catalogue of IC50 values
endpointLabel: IC50

compound=CN(C)CCCn1cc([C@@H](Nc2cc(Cl)c3ncc(C#N)c(Nc4ccc(F)c(Cl)c4)c3c2)c2ccccc2)nn1 endpointlabel=IC50 endpointvalue="3 nM"
compound=CC(C)(C)N1CCC(n2cc([C@@H](Nc3cc(Cl)c4ncc(C#N)c(N[C@H]5CCCOC5)c4c3)c3ccccc3)nn2)CC1 endpointlabel=IC50 endpointvalue="337 nM"
compound=N#Cc1cnc2c(Cl)cc(N[C@@H](c3ccc(F)cc3)c3c[nH]nn3)cc2c1Nc1cnc(F)c(Cl)c1 endpointlabel=IC50 endpointvalue="10 nM"
compound=CN(c1cccc([C@H](Nc2cc(Cl)c3ncc(C#N)c(Nc4ccc(F)c(Cl)c4)c3c2)c2cn(C3CCN(C(C)(C)C)CC3)nn2)c1)S(C)(=O)=O endpointlabel=IC50 endpointvalue="2 nM"
compound=CC[C@@H](Nc1c(C#N)cnc2c(Cl)cc(N[C@H](c3cnn(C(F)F)n3)c3cccc(F)c3F)cc12)c1ccccc1 endpointlabel=IC50 endpointvalue="3150 nM"
compound="CC(C)(C)N1CCC(n2cc([C@@H](Nc3cc(Cl)c4ncc(C#N)c(NC5CCCC(O)C5)c4c3)c3ccc(F)cc3)nn2)CC1 (some centres unmarked) [Example 440]" endpointlabel=IC50 endpointvalue="46 nM"
compound=COc1ccc(Nc2c(C#N)cnc3c(Cl)cc(N[C@@H](c4ccccc4)c4cn(C(C)(C)C)nn4)cc23)cn1 endpointlabel=IC50 endpointvalue="173 nM"
compound=N#Cc1cccc([C@H](Nc2cc(Cl)c3ncc(C#N)c(Nc4ccc(Cl)c(Cl)c4F)c3c2)c2c[nH]nn2)c1 endpointlabel=IC50 endpointvalue="41 nM"

----------
- Tested on: TNFα production in LPS-stimulated human monocytes
- assayExplanation: Cot Monocyte TNFα Cell Based Assay
- studyConditions: Homo sapiens, Monocyte, LPS-stimulated human monocytes, TNFα TR-FRET; read-out: EC50 TNF
pEC50: −log10 of the molar value.
Entry flag: condition met if pEC50 reaches 7; condition not met if it does not.

mol=Cc1c(-c2cncn2C)cccc1[C@H](Nc1cc(C#N)c2ncc(C#N)c(NCC(C)(C)C)c2c1)c1cn(C2(C(F)F)CC2)nn1 answerlabel="condition met"
mol=CC(C)(C)CNc1c(C#N)cnc2c(Cl)cc(N[C@@H](c3ccccc3)c3cn(C(F)(F)C(N)=O)nn3)cc12 answerlabel="condition not met"
mol=[2H][C@](Nc1cc(Cl)c2ncc(C#N)c(Nc3cccc(Cl)c3C#N)c2c1)(c1ccc(F)cc1)c1cn(C2CC2)nn1 answerlabel="condition not met"
mol=[2H][C@](Nc1cc(-c2cncnc2)c2ncc(C#N)c(N[C@H](CCC(=O)O)c3ccccc3)c2c1)(c1ccc(F)cc1)c1cn(C2CC2)nn1 answerlabel="condition not met"
mol=Cc1c(-c2cc[nH]n2)cccc1[C@H](Nc1cc(C#N)c2ncc(C#N)c(NCC(C)(C)C)c2c1)c1cn(C2(C(F)(F)F)CC2)nn1 answerlabel="condition not met"
mol=CC(C)(C)CNc1c(C#N)cnc2c(C#N)cc(N[C@@H](c3ccccc3)c3cn(C4(C(N)=O)CC4)nn3)cc12 answerlabel="condition not met"
mol=CC(C)(C)CNc1c(C#N)cnc2c(Br)cc(N[C@H](c3cn(Cc4c(F)cccc4F)nn3)c3ccccc3Cl)cc12 answerlabel="condition not met"
mol=Cc1c(C#N)cccc1[C@H](Nc1cc(C#N)c2ncc(C#N)c(NCC(C)(C)C(F)(F)F)c2c1)c1cn(C2(C(F)F)CC2)nn1 answerlabel="condition met"
mol=Cc1c([C@H](Nc2cc(Cl)c3ncc(C#N)c(NCC(C)(C)C)c3c2)c2cn(C3(C(F)F)CC3)nn2)cccc1-n1cncn1 answerlabel="condition met"
mol=Cc1c(-c2ccccn2)cccc1[C@H](Nc1cc(C#N)c2ncc(C#N)c(NCC(C)(C)C)c2c1)c1cn(C2(C(F)(F)F)CC2)nn1 answerlabel="condition not met"

----------
- System: TNFα production in LPS-stimulated human monocytes
- assayExplanation: Cot Monocyte TNFα Cell Based Assay
- studyConditions: Homo sapiens, Monocyte, LPS-stimulated human monocytes, TNFα TR-FRET; read-out: EC50 TNF
- Method: Example 60: Cot Monocyte TNFα Cell Based Assay The cell suspension was then plated at a density of 5,000 cells/well onto black 384 well Greiner clear bottom plates. […] Cells were then spun out of the media and 5 ul of sample were taken and analyzed for total TNFα content using the TR-FRET Human TNFα detection system (CisBio). […]
Grouping key: EC50. Bins: range 1 = under 60 nM, range 2 = from 60 nM up to 100 nM, range 3 = 100 nM and over

compound="Cc1c([C@H](Nc2cc(Cl)c3ncc(C#N)c(NCC(C)(C)C)c3c2)c2cn(C3(C(F)(F)F)CC3)nn2)cccc1-n1cncn1 [Example 1040]" answerlabel="range 2"
compound="Cc1c([C@H](Nc2cc(Cl)c3ncc(C#N)c(NCC(C)(C)C)c3c2)c2cn(C3(C(F)(F)F)CC3)nn2)cccc1-n1cnnc1 [Example 1071]" answerlabel="range 3"
compound="CC(C)(CO)CNc1c(C#N)cnc2c(C#N)cc(N[C@H](c3cn(C4(C)CC4)nn3)c3ccccc3Cl)cc12 [Example 1035]" answerlabel="range 3"
compound="N#Cc1cnc2c(Cl)cc(N[C@H](c3cn(C4CC4)nn3)c3ccccc3Cl)cc2c1NCC12CC(C1)C2 [Example 928]" answerlabel="range 3"
compound="Cc1c(C#N)cccc1[C@H](Nc1cc(C#N)c2ncc(C#N)c(NCC(C)(C)C)c2c1)c1cn(C2(CF)CC2)nn1 [Example 1147]" answerlabel="range 1"
compound="Cc1ccccc1[C@H](Nc1cc(C#N)c2ncc(C#N)c(NCC(C)(C)C)c2c1)c1cn(C2(C#N)CC2)nn1 [Example 1024]" answerlabel="range 1"
compound="Cc1c(-c2cn[nH]c2)cccc1[C@H](Nc1cc(C#N)c2ncc(C#N)c(NCC(C)(C)C)c2c1)c1cn(C2(C(F)(F)F)CC2)nn1 [Example 1133]" answerlabel="range 1"
compound="CC(C)(C)CNc1c(C#N)cnc2c(F)cc(N[C@H](c3cn(C(F)(F)C(N)=O)nn3)c3ccccc3Cl)cc12 [Example 1001]" answerlabel="range 3"
compound="[2H][C@@](Nc1cc(I)c2ncc(C#N)c(NCC(C)(C)C)c2c1)(c1cn(C2CC2)nn1)c1ccccc1Cl [Example 953]" answerlabel="range 3"
compound="CC(C)(C)CNc1c(C#N)cnc2c(C#N)cc(N[C@H](c3cn(C4(C(F)F)CC4)nn3)c3cccc(C#N)c3Cl)cc12 [Example 1080]" answerlabel="range 3"
compound="CC(C)(C)CNc1c(C#N)cnc2c(C#N)cc(N[C@@H](c3ccc(F)cc3)c3cn(C4(c5ccncc5)CC4)nn3)cc12 [Example 983]" answerlabel="range 1"
compound="Cc1c([C@H](Nc2cc(Cl)c3ncc(C#N)c(NCC(C)(C)C)c3c2)c2cn(C3(C(F)(F)F)CC3)nn2)cccc1-n1ccnc1 [Example 1041]" answerlabel="range 2"
compound="[2H]C(Nc1cc(Cl)c2ncc(C#N)c(NCC(C)(C)C)c2c1)(c1cn(C2(C3CC3)CC2)nn1)c1ccccc1Cl (centres unmarked) [Example 958]" answerlabel="range 3"
compound="[2H][C@](Nc1cc(Cl)c2ncc(C#N)c(N[C@H](CCC#N)c3ccccc3)c2c1)(c1ccc(F)cc1)c1cn(C2(C(F)(F)F)CC2)nn1 [Example 938]" answerlabel="range 2"
compound="CC(C)(C)CNc1c(C#N)cnc2c(F)cc(N[C@H](c3cn(C4(C#N)CC4)nn3)c3ccccc3Cl)cc12 [Example 1000]" answerlabel="range 3"
compound="Cc1c(-c2cnco2)cccc1[C@H](Nc1cc(C#N)c2ncc(C#N)c(NCC(C)(C)C)c2c1)c1cn(C2(C(F)F)CC2)nn1 [Example 1158]" answerlabel="range 1"
compound="[2H][C@](Nc1cc(Cl)c2ncc(C#N)c(NC3(C(F)F)CC3)c2c1)(c1ccc(F)cc1)c1cn(C2CC2)nn1 [Example 967]" answerlabel="range 3"
compound="Cc1c(-c2cnn(C)c2)cccc1[C@H](Nc1cc(Cl)c2ncc(C#N)c(NCC(C)(C)C)c2c1)c1cn(C2(C(F)F)CC2)nn1 [Example 1086]" answerlabel="range 2"
compound="CC(C)(C)CNc1c(C#N)cnc2c(C#N)cc(N[C@@H](c3ccc(F)cc3)c3cn(C4(C)CC4)nn3)cc12 [Example 978]" answerlabel="range 2"
